biological target: beta-catenin/TCF4 engagement (Homo sapiens); construct: expressed in transfected cells; host or cells: HEK293; test: Nano-BRET target engagement assay (B-cat-Halo & TCF4-Luc in HEK293 cells); assay type: cell-based; details: absolute IC50; read-out: NanoBRET Abs IC50
Sequence (P35222 whole entry): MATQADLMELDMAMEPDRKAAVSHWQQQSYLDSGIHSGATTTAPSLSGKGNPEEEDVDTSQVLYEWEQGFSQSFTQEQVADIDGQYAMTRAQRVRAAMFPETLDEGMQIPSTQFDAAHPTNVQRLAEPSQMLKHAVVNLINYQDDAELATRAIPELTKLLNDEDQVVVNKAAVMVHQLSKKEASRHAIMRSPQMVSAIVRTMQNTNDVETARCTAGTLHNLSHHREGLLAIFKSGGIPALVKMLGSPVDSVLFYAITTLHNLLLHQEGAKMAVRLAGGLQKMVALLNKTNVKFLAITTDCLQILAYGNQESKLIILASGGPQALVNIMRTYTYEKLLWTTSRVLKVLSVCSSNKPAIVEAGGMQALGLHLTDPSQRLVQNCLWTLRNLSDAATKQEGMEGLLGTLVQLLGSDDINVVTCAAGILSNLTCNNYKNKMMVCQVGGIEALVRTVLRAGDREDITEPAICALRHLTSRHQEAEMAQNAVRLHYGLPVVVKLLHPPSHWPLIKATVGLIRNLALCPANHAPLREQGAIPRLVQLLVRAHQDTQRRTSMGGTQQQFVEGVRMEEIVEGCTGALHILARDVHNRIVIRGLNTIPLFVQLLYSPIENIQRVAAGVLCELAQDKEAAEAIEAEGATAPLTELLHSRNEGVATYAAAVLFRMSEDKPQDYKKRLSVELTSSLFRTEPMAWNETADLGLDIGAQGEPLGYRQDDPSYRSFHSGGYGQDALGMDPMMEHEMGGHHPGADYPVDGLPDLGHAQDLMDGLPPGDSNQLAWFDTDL
Experimental endpoint: log10 IC50 (log10 of the value in µM)
Heads up: the numbers are on a log10 scale; they represent IC50 in µM.

compound="CC(=O)N1CCC[C@]12CC=CCCCC1(CCCC=CCCCOC(=O)N3CC[C@@](C(=O)N[C@@H](Cc4ccccc4Cl)C(=O)N[C@@H](Cc4csc5ccccc45)C(=O)N[C@@H](C(N)=O)[C@H](C)O)(C3)NC(=O)[C@H](CO)NC(=O)[C@H](Cc3ccccc3)NC(=O)[C@H](C)NC(=O)[C@H](C)NC(=O)[C@H](CC(=O)O)NC(=O)[C@H](CC(=O)O)NC1=O)NC(=O)[C@H](CC1CCCCC1)NC(=O)[C@H](CC(=O)O)NC2=O (stereo partly drawn) [I-1136]" experimental_endpoint="log10 IC50" experimental_result=1.17
compound="CC(=O)N1CCC[C@]12CC=CCCCC1(CCCC=CCCCOC(=O)N3CC[C@@](C(=O)N[C@@H](Cc4ccccc4Cl)C(=O)N[C@@H](Cc4csc5ccccc45)C(=O)N[C@@H](CC(C)C)C(N)=O)(C3)NC(=O)[C@H](CCCCNC(C)C)NC(=O)[C@H](Cc3ccccc3)NC(=O)[C@H](C)NC(=O)[C@H](C)NC(=O)[C@H](CCC(=O)O)NC(=O)[C@H](CC(=O)O)NC1=O)NC(=O)[C@H](CC(C)(C)C)NC(=O)[C@H](CC(=O)O)NC2=O (stereo partly drawn) [I-1283]" experimental_endpoint="log10 IC50" experimental_result=1.59
compound="CC(=O)N1CCC[C@]12CC=CCCCC1(CCCC=CCCCOC(=O)N3CC[C@@](C(=O)N[C@@H](Cc4ccsc4)C(=O)N[C@@H](Cc4csc5ccccc45)C(=O)N[C@@H](CC(N)=O)C(=O)N[C@@H](C)C(=O)N[C@@H](CC(C)C)C(=O)N[C@@H](CC(C)C)C(N)=O)(C3)NC(=O)[C@H](CC(C)C)NC(=O)[C@H](Cc3ccccc3)NC(=O)[C@H](C)NC(=O)[C@H](C)NC(=O)[C@H](Cc3cccc(C(=O)O)c3)NC(=O)[C@H](CC(=O)O)NC1=O)NC(=O)[C@H](CC(C)(C)C)NC(=O)[C@H](CC(=O)O)NC2=O (stereo partly drawn) [I-2277]" experimental_endpoint="log10 IC50" experimental_result=0.36
compound="CC(=O)N1CCC[C@]12CC=CCCCC1(CCCC=CCCCOC(=O)N3CC[C@@](C(=O)N[C@@H](Cc4ccccc4Cl)C(=O)N[C@@H](Cc4csc5ccccc45)C(=O)N[C@@H](C)CO)(C3)NC(=O)[C@H]([C@@H](C)O)NC(=O)[C@H](Cc3ccccc3)NC(=O)[C@H](C)NC(=O)[C@H](C)NC(=O)[C@H](CC(=O)O)NC(=O)[C@H](CC(=O)O)NC1=O)NC(=O)[C@H](CC(C)(C)C)NC(=O)[C@H](CC(=O)O)NC2=O (stereo partly drawn) [I-1246]" experimental_endpoint="log10 IC50" experimental_result=1.39
compound="CC(=O)N1CCC[C@]12CC=CCCCC1(CCCC=CCCCCCC[C@@](C)(C(=O)N[C@@H](Cc3ccccc3)C(=O)N[C@@H](Cc3csc4ccccc34)C(=O)N[C@@H](CCC(N)=O)C(N)=O)NC(=O)[C@H](CCC(N)=O)NC(=O)[C@H](Cc3ccccc3)NC(=O)[C@H](C)NC(=O)[C@H](C)NC(=O)[C@H](CCC(=O)O)NC(=O)[C@H](CC(=O)O)NC1=O)NC(=O)[C@H](CC(C)C)NC(=O)[C@H](CC(=O)O)NC2=O (stereo partly drawn) [I-505]" experimental_endpoint="log10 IC50" experimental_result=0.69

The compound listed as CC(=O)N1CCC[C@]12CC=CCCCC1(CCCC=CCCCOC(=O)N3CC[C@@](C(=O)N[C@@H](Cc4ccccc4C(F)(F)F)C(=O)N[C@@H](Cc4csc5c(F)cccc45)C(=O)N[C@@H](C)C(N)=O)(C3)NC(=O)[C@H](CC(C)C)NC(=O)[C@H](Cc3ccccc3)NC(=O)[C@H](C)NC(=O)[C@H](CCC(N)=O)NC(=O)[C@H](Cc3cccc(C(=O)O)c3)NC(=O)[C@H](CC(=O)O)NC1=O)NC(=O)[C@H](CC(C)(C)C)NC(=O)[C@H](CC(=O)O)NC2=O (stereo partly drawn) [I-2489] shows log10 IC50 equal to 0.87
